Exercise: for every item that follows, state its recorded TGI.
- Test system: DU-145 prostate
- test.description: NCI tumour cell line growth inhibition, 48 h
// note: answer is a bare numeric in µM

Provide one value: measured TGI of `COc1cc(-c2nn(-c3cccc(NC(=O)Nc4cccc(C(F)(F)F)c4)c3)cc2-c2ccncc2)ccc1Cl` 22.8

Provide one value: measured TGI of N#CC(C/C=C/c1ccccc1)NNC(=O)c1c(Cl)c(Cl)c(Cl)c(Cl)c1-c1nc2ccc(C(=O)c3ccccc3)cc2[nH]1 (configuration not stated) 50.7

Provide one value: measured TGI of `Clc1ccccc1/C=C/c1ccnc2ccccc12` 29

Provide one value: measured TGI of `C[CH2][Pb]([CH2]C)([CH2]C)[O]C(=O)COC` 5.68

Provide one value: measured TGI of COc1cc(C2CC(c3cccc(Nc4ccncc4)c3)=NN2c2ccccc2)cc(OC)c1OC (configuration not stated) 3.4

Provide one value: measured TGI of COc1ccc(/C=C2\CCC(CN3CCOCC3)C2=O)cc1 (configuration not stated) 4.02

Provide one value: measured TGI of `C=CCc1cccc2cc(C(=O)NC3CCCCC3)c(=N)oc12` 52.5

Provide one value: measured TGI of `O=[N+]([O-])/C(C(Cl)=C(Cl)Cl)=C(/Br)SCc1ccccc1` 25.7

Provide one value: measured TGI of O=C1C=CC2(O)OC/C(=C\c3ccccc3)C(O)=C2C1=O (configuration not stated) 9.36

Provide one value: measured TGI of C=C1CC2(CCOc3ccc(Cl)cc32)OC1=O (configuration not stated) 27.4

----------
- Tested on: NCI-H23 lung
- test.description: NCI tumour cell line growth inhibition, 48 h
Exercise: for every item that follows, state its recorded TGI.

Provide one value: measured TGI of `c1ccc(CC(Cc2ccccc2)C2=NCCCN2)cc1` > 100 µM

Provide one value: measured TGI of COc1cc([C@@H]2c3cc4c(cc3[C@@H](OC3OC5CO[C@@H](c6cccs6)OC5C(O)C3O)[C@H]3COC(=O)[C@H]23)OCO4)cc(OC)c1O (some centres undefined) 4.44 µM

Provide one value: measured TGI of C[C@]12CCC(N3CCCC3)CC1=CC[C@@H]1[C@@H]2CC[C@]2(C)C(O)[C@H](n3ccnc3)C[C@@H]12 (some centres undefined) > 100 µM

Provide one value: measured TGI of `COc1cc2nn(-c3ccccc3)nc2c2nonc12` > 100 µM

Provide one value: measured TGI of `OC(CC(CC(O)(C(F)(F)F)C(F)(F)F)=NN=C(CC(O)(C(F)(F)F)C(F)(F)F)CC(O)(C(F)(F)F)C(F)(F)F)(C(F)(F)F)C(F)(F)F` > 10 µM

Provide one value: measured TGI of `C/C(=C\COP(=O)(O)OP(=O)(O)O)CCCOCc1ccccc1` > 100 µM

Provide one value: measured TGI of `C=C(C)c1cc(C(C)(C)C)cc(C(=C)C)c1S(C)(=O)=O` > 100 µM

Provide one value: measured TGI of COC(=O)C1=C(C=O)C2C=CC1C2 (centres undefined) > 100 µM

Provide one value: measured TGI of `CCOC(=O)[C@H]1Nc2ccc(Cl)cc2[C@H]2CCC[C@@H]12` > 100 µM

----------
- Test system: OVCAR-4 ovarian
- test.description: NCI tumour cell line growth inhibition, 48 h; in the data active means GI50 below about 0.43 µM; inactive means the rest
Pick from active, inactive when you respond.

Tell me the recorded outcome of this test for CC(=O)NC1C(OCc2ccccc2)OC(CO)C(O)C1OC(C)C(=O)NC(C)C(=O)N[C@@H](CCC(=O)OCCCNC1c2ccccc2Nc2cccc([N+](=O)[O-])c21)C(N)=O (some centres not stated) . active

Tell me the recorded outcome of this test for `C[CH2][Pb]([CH2]C)([CH2]C)[O]C(=O)COC` . inactive

Tell me the recorded outcome of this test for `CCOC(=O)/C(C#N)=C\C=C(\Sc1nc2ccccc2s1)c1ccc(Cl)cc1` . inactive

Tell me the recorded outcome of this test for `S=C(S)N1CCCCC1` . inactive

Tell me the recorded outcome of this test for `CC(=O)Oc1cc(C(C)C)c(OCCN(C)C)cc1C` . inactive

Tell me the recorded outcome of this test for `Cc1ccc(C2=NN(c3ccc(S(C)(=O)=O)cc3)C(=O)CC2)cc1` . inactive

Tell me the recorded outcome of this test for CCc1ccc(C(=O)/C=C/C23c4ccccc4C(c4ccccc42)C2C(=O)NC(=O)C23)cc1 (configuration not stated) . inactive

Tell me the recorded outcome of this test for `Cn1cc(-c2csc(-c3c[nH]c4ccccc34)n2)c2cnccc21` . inactive

Tell me the recorded outcome of this test for `O=C(CN(/C=C/C(=O)C(F)(F)F)c1ccc(Cl)cc1)c1ccc(F)cc1` . inactive

Tell me the recorded outcome of this test for `Cc1nc2cc(-c3nn(C(C)C)c4ncnc(N)c34)ccc2o1` . active

Tell me the recorded outcome of this test for `CCCCOC(=O)CC(CC(=O)OCCCC)(OC(C)=O)C(=O)OCCCC` . inactive

Tell me the recorded outcome of this test for `Cc1cc(=O)n2nnc3c4ccccc4ccc3n12` . inactive
